FYI, the data here is from patent US20200277375A1.

- TARGET_OF_ASSAY: T1, human CD47 on cells (human CD47-transfected CHO-K1; HL60) (human, UniProt Q08722 19-323)
- T1 construct: whole, on cells; also called human CD47+ cells; human CD47+HL60 cells
- MEASUREMENT_DESCRIPTION: flow cytometry, human CD47-transfected CHO-K1, FIG. 6
Items are presented alongside their recorded maximum MFI, fold over untransfected CHO-K1.
MEASURED_ENDPOINT: maximum MFI, fold over untransfected CHO-K1

[[record]]
binder = "D-H3 in human IgG1null format (antibody, V domains shown, IgG1null (L234A/L235A/G237A), kappa) VH: EVQLVQSGAEVKKPGESLKISCKGSGYSFTNYYIFWVRQMPGKGLEWMGDINPVNGDTNYSPSFQGQVTISADKSISTAYLQWSSLKASDTAMYYCARGGYTPDYWGQGTLVTVSS VL: DIVMTQSPLSLPVTPGEPASISCRSSQSLLHSNGYNYLHWYLQKPGQSPQLLIYKGSNRFSGVPDRFSGSGSGTDFTLKISRVEAEDVGVYYCSQNLHVPRTFGQGTKVEIK"
result = "> 10 fold"

[[record]]
binder = "F-E7 in human IgG4(S228P) format (antibody, V domains shown, IgG4(S228P), kappa; also called F-E7 IgG4) VH: EVQLVQSGAEVKKPGESLKISCKGSGYSFTNYYIFWVRQMPGKGLEWMGIINPVNGDTNYNPSFQGQVTISADKSISTAYLQWSSLKASDTAMYYCARGGYTMGKWGQGTLVTVSS VL: DIVMTQSPLSLPVTPGEPASISCRSSQSLVHSNGNTYLDWYLQKPGQSPQLLIYKGSYRFSGVPDRFSGSGSGTDFTLKISRVEAEDVGVYYCSQATHTPRTFGQGTKVEIK"
result = "> 10 fold"

[[record]]
binder = "A-D5 in human IgG4(S228P) format (antibody, V domains shown, IgG4(S228P), kappa; also called IgG4 A-D5) VH: EVQLVQSGAEVKKPGESLKISCKGSGYTFTNYYIFWVRQMPGKGLEWMGIINPVDGDTNYNPSFQGQVTISADKSISTAYLQWSSLKASDTAMYYCARGGYTMDRWGQGTLVTVSS VL: DIVMTQSPLSLPVTPGEPASISCRSSQSLLHSNGYTYLHWYLQKPGQSPQLLIYKVSNRLSGVPDRFSGSGSGTDFTLKISRVEAEDVGVYYCFQNTHTPRTFGQGTKVEIK"
result = "> 10 fold"

